Test system: NCI-H1355
TEST SUMMARY: relative viability (nuclei count vs DMSO), 5 days (fraction); higher = more cells survive
RUN PARAMETERS: first compound 0.01 µM
READOUT TYPE: relative viability
// return just the number, without any unit appended

The examples below pair each entry with its known result.
Q: // lookup relative viability for NC(=O)Nc1cc(-c2cccc(F)c2)sc1C(=O)N[C@H]1CCCNC1 [AZD7762] + C[C@@H](Oc1cc(-c2cnn(C3CCNCC3)c2)cnc1N)c1c(Cl)ccc(F)c1Cl [Crizotinib] (partner 1 µM)
Ans: 1.02

Q: And what about the molecule NC(=O)Nc1cc(-c2cccc(F)c2)sc1C(=O)N[C@H]1CCCNC1 [AZD7762] + C[C@]1(O)C[C@@H](c2nc(-c3ccc4ccc(-c5ccccc5)nc4c3)c3c(N)nccn32)C1 [Linsitinib] (partner 1 µM) ?
Ans: 0.805

Q: Same again, this time with NC(=O)Nc1cc(-c2cccc(F)c2)sc1C(=O)N[C@H]1CCCNC1 [AZD7762] + Cc1nc(NC(=O)N2CCC[C@H]2C(N)=O)sc1-c1ccnc(C(C)(C)C(F)(F)F)c1 [Alpelisib] (partner 2 µM)
Ans: 0.894

More entries:
Q: Find the recorded relative viability belonging to NC(=O)Nc1cc(-c2cccc(F)c2)sc1C(=O)N[C@H]1CCCNC1 [AZD7762] + COc1cccc2cc(-c3nc([C@H]4CC[C@H](C(=O)O)CC4)n4ncnc(N)c34)[nH]c12 [OSI-027] (partner 0.5 µM) and report it.
Ans: 0.389
